tested on: GLXMAW (Soybean, Williams); assay: Postemergence herbicidal evaluation; assay type: in vivo, Glycine max, (L.) Merr. cv Williams; conditions: postemergence, rate 0.0158 kg/ha
# key: entry, value: GLXMAW herbicidal rating

// below: answered compounds
CCOC(=O)CN1C(=O)C(=Cc2ccccc2)SC1=Nc1cc(-n2c(=O)cc(C(F)(F)F)n(C)c2=O)c(F)cc1Cl : 3.0
CN(C)N1C(=O)CSC1=Nc1cc(-n2c(=O)cc(C(F)(F)F)n(C)c2=O)c(F)cc1Cl : 3.0
CC(C)C[C@@H](C(=O)O)N1C(=O)CSC1=Nc1cc(-n2c(=O)cc(C(F)(F)F)n(C)c2=O)c(F)cc1Cl : 6.5

Problem: So what's the measured GLXMAW herbicidal rating for this one? C[C@@H](C(=O)OC(C)(C)C)N1C(=O)CSC1=Nc1cc(-n2c(=O)cc(C(F)(F)F)n(C)c2=O)c(F)cc1Cl
Result: 4.0

Problem: What value of measured GLXMAW herbicidal rating is listed for C[C@H](C(=O)O)N1C(=O)CSC1=Nc1cc(-n2c(=O)cc(C(F)(F)F)n(C)c2=O)c(F)cc1Cl ?
Result: 4.5

* * *

tested on: GLXMAW (Soybean, Williams); assay: Postemergence herbicidal evaluation; type: in vivo, Glycine max, (L.) Merr. cv Williams; details: postemergence, rate 0.0630 kg/ha
Where GLXMAW herbicidal rating equals or exceeds 6, the correct label is rule met; where it does not, the label is rule not met.

Problem: Identify whether the reported GLXMAW herbicidal rating of the following molecule is 6 or greater: C[C@@H](C(=O)OC(C)(C)C)N1C(=O)CSC1=Nc1cc(-n2c(=O)cc(C(F)(F)F)n(C)c2=O)c(F)cc1Cl [Compound 75]
Result: rule not met

Problem: Does GLXMAW herbicidal rating meet or surpass 6 for CCOC(=O)[C@H](Cc1ccccc1)N1C(=O)CSC1=Nc1cc(-n2c(=O)cc(C(F)(F)F)n(C)c2=O)c(F)cc1Cl [Compound 80] ?
Result: rule met

Problem: Is the recorded value of GLXMAW herbicidal rating equal to or greater than 6 for this molecule? CN1C(=O)C(CC(=O)OCCF)SC1=Nc1cc(-n2c(=O)cc(C(F)(F)F)n(C)c2=O)c(F)cc1Cl (centres unmarked) [Compound 93]
Result: rule met

Problem: Is GLXMAW herbicidal rating at least 6? Consider CCOC(=O)CN1C(=O)C(CC(=O)Nc2ccccc2)SC1=Nc1cc(-n2c(=O)cc(C(F)(F)F)n(C)c2=O)c(F)cc1Cl (centres unmarked) [Compound 68]
Result: rule met

Problem: Confirm if GLXMAW herbicidal rating reported for the molecule CCOC(=O)CN1C(=O)C(=Cc2ccccc2)SC1=Nc1cc(-n2c(=O)cc(C(F)(F)F)n(C)c2=O)c(F)cc1Cl [Compound 19] is 6 or above.
Result: rule not met

* * *

Recorded Herbicidal rating CASOB by entry
tested on: CASOB (Sicklepod); assay: Postemergence herbicidal evaluation; format: in vivo, Cassia obtusifolia; settings: postemergence, rate 0.0156 kg/ha
Response field accepts a number only; no unit should be typed.

Problem: Look at this molecule and give its reported Herbicidal rating CASOB. CN1C(=O)C(CC(=O)NS(=O)(=O)c2ccccc2)SC1=Nc1cc(-n2c(=O)cc(C(F)(F)F)n(C)c2=O)c(F)cc1Cl (stereo not shown)
Result: 0.0

Problem: Please look up its Herbicidal rating CASOB: Cn1c(C(F)(F)F)cc(=O)n(-c2cc(N=C3SCC(=O)N3Cc3cccc(Cl)c3)c(Cl)cc2F)c1=O
Result: 1.0

Problem: Field request: Herbicidal rating CASOB | item: Cc1cc(C)cc(CN2C(=O)CSC2=Nc2cc(-n3c(=O)cc(C(F)(F)F)n(C)c3=O)c(F)cc2Cl)c1
Result: 1.0

Problem: Need Herbicidal rating CASOB of Cn1c(C(F)(F)F)cc(=O)n(-c2cc(N=C3SCC(=O)N3C3CCCC3)c(Cl)cc2F)c1=O , thanks.
Result: 0.0

* * *

test system: CASOB (Sicklepod); experiment: Preemergence herbicidal evaluation; assay type: in vivo, Cassia obtusifolia; conditions: rate 0.0625 kg/ha; rated 4-5 weeks after treatment
property: Preemergence herbicidal rating CASOB
Give your answer as a number; write no unit.

For orientation, consider the following solved cases.
Cn1c(C(F)(F)F)cc(=O)n(-c2cc(N=C3SCC(=O)N3CC(=O)OC3CCCC3)c(Cl)cc2F)c1=O : 3.0
COC(=O)CCCN1C(=O)CSC1=Nc1cc(-n2c(=O)cc(C(F)(F)F)n(C)c2=O)c(F)cc1Cl : 0.0

Problem: Give CASOB (Sicklepod) Preemergence herbicidal rating CASOB for CCOC(=O)CN1CC(=O)N(CC(=O)OCC)C1=Nc1cc(-n2c(=O)cc(C(F)(F)F)n(C)c2=O)c(F)cc1Cl
Result: 0.0

* * *

test system: CASOB (Sicklepod); assay: Preemergence herbicidal evaluation; format: in vivo, Cassia obtusifolia; conditions: rate 0.2500 kg/ha; rated 4-5 weeks after treatment
property: Preemergence herbicidal rating CASOB
// return a plain number; no unit text

In the examples that follow, each entry is paired with its recorded Preemergence herbicidal rating CASOB.
Cc1ccccc1CN1C(=O)CSC1=Nc1cc(-n2c(=O)cc(C(F)(F)F)n(C)c2=O)c(F)cc1Cl : 8.0
CCOC(=O)CN1C(=O)C(C(=O)OC)SC1=Nc1cc(-n2c(=O)cc(C(F)(F)F)n(C)c2=O)c(F)cc1Cl (stereo not shown) : 0.0
CCOC(=O)CN1C(=O)C(CC(=O)O)SC1=Nc1cc(-n2c(=O)cc(C(F)(F)F)n(C)c2=O)c(Cl)cc1Cl (stereo not shown) : 9.0

Problem: Quick one: Preemergence herbicidal rating CASOB for Cn1c(C(F)(F)F)cc(=O)n(-c2cc(N=C3NC(=O)CS3)c(Cl)cc2F)c1=O ?
Result: 1.0

* * *

tested on: IPOHE (Morningglory, Ivyleaf); assay: Postemergence herbicidal evaluation; assay type: in vivo, Ipomoea hederacea; conditions: postemergence, rate 0.0158 kg/ha
property: IPOHE herbicidal rating

Problem: Returns the measured IPOHE herbicidal rating for the input compound. Input: C#CCOC(=O)CC1SC(=Nc2cc(-n3c(=O)cc(C(F)(F)F)n(C)c3=O)c(F)cc2Cl)N(CC=C)C1=O (stereo not shown)
Result: 9.0

Problem: Sample CN1C(=O)C(CC(=O)Nc2ccccc2)SC1=Nc1cc(-n2c(=O)cc(C(F)(F)F)n(C)c2=O)c(F)cc1Cl (stereo not shown) — what was its IPOHE herbicidal rating?
Result: 7.0

Problem: Please look up its IPOHE herbicidal rating: C=CCOC(=O)CC1SC(=Nc2cc(-n3c(=O)cc(C(F)(F)F)n(C)c3=O)c(F)cc2Cl)N(CC=C)C1=O (stereo not shown)
Result: 9.0

Problem: Request the reported IPOHE herbicidal rating associated with CCOC(=O)[C@H](Cc1ccccc1)N1C(=O)CSC1=Nc1cc(-n2c(=O)cc(C(F)(F)F)n(C)c2=O)c(F)cc1Cl
Result: 9.0

* * *

Tested on: CYPIR (Rice Flatsedge)
Experiment: Postemergence weed control under flooded paddy conditions
Type: in vivo, Cyperus iria
Settings: rate 0.0313 kg/ha, postemergence weeds, 3-4 weeks after treatment
Description: Results of herbicide evaluation are expressed on a rating scale (0-9). The scale is based upon a visual observation of plant stand, vigor, malformation, size, chlorosis and overall plant appearance as compared with a control. Plastic containers containing weeds which are 3 to 5 cm tall and rice seedlings at the 1.5 to 2.5 leaf stage are flooded with water. […] The compounds evaluated are reported by compound number given in Example 37.
property: Herbicidal rating CYPIR

CCOC(=O)CN1C(=O)C(CC(=O)O)S/C1=N/c1cc(-n2c(=O)cc(C(F)(F)F)n(C)c2=O)c(F)cc1Cl (stereo not shown) [Compound 16] : 0.0
C=CCN1C(=O)CSC1=Nc1cc(N2C(=O)C3=C(CCCC3)C2=O)c(F)cc1Cl [Compound 2] : 0.0
CCOC(=O)CN1C(=O)C(Cc2ccccc2)SC1=Nc1cc(-n2c(=O)cc(C(F)(F)F)n(C)c2=O)c(F)cc1Cl (stereo not shown) [Compound 24] : 0.0

Next molecule, please.
Problem: Look up Herbicidal rating CYPIR for this molecule: CN1C(=O)CS/C1=N/c1cc(-n2c(=O)cc(C(F)(F)F)n(C)c2=O)c(F)cc1Cl [Compound 7]
Result: 8.5

* * *

test system: ECHORC (Watergrass (Calif.)); assay: Preemergence weed control under flooded paddy conditions; format: in vivo, Echinochloa oryzoides; conditions: 0.1250 kg/ha, rated 3-4 weeks after treatment
property: herbicidal effect rating, ECHORC
Please reply with the value in numeric form only.

CCOC(=O)CN1C(=O)C(Br)SC1=Nc1cc(-n2c(=O)cc(C(F)(F)F)n(C)c2=O)c(F)cc1Cl (stereo not drawn) : 0.0
CCOC(=O)CN1C(=O)C(CC(=O)O)SC1=Nc1cc(N2C(=O)CC(C(F)(F)F)CC2=O)c(F)cc1Cl (stereo not drawn) : 9.0
Cn1c(C(F)(F)F)cc(=O)n(-c2cc(N=C3SCC(=O)N3CC(=O)OC3CCCC3)c(Cl)cc2F)c1=O : 9.0

Problem: # herbicidal effect rating, ECHORC lookup, item CCOC(=O)CN1C(=O)C(C(=O)OC)SC1=Nc1cc(-n2c(=O)cc(C(F)(F)F)n(C)c2=O)c(F)cc1Cl (stereo not drawn)
Result: 7.0

Problem: Reported herbicidal effect rating, ECHORC for Cc1ccc(CN2C(=O)CSC2=Nc2cc(-n3c(=O)cc(C(F)(F)F)n(C)c3=O)c(F)cc2Cl)cc1Cl : what is it?
Result: 6.0

Problem: Query: herbicidal effect rating, ECHORC; subject: COc1cc(CN2C(=O)CSC2=Nc2cc(-n3c(=O)cc(C(F)(F)F)n(C)c3=O)c(F)cc2Cl)cc(OC)c1OC
Result: 7.0
